- Tested on: HEK-293T
- method_description: Multiplex assay against HEK293T
- Format: toxicity, cell-based
- measurement_parameters: human, 24 h, 10 µM, compound concentration 10 uM, replicate 2
reported_property: Population Pyknosed Nuclei (%)
Numeric answer only, unit % assumed.

Give a short answer stating reported Population Pyknosed Nuclei (%) for CC[C@H]1OC(=O)[C@H](C)[C@@H](O[C@H]2C[C@@](C)(OC)[C@@H](O)[C@H](C)O2)[C@H](C)[C@@H](O[C@@H]2O[C@H](C)C[C@H](N(C)C)[C@H]2O)[C@@]2(C)CC(C)=C(O2)[C@H](C)[C@@H](O)[C@]1(C)O .
18

Give a short answer stating reported Population Pyknosed Nuclei (%) for CC(C)(C)c1ccc(S(=O)(=O)Nc2ccc(Cl)cc2C(=O)c2cc[n+]([O-])cc2)cc1 [VERCIRNON] .
9

Give a short answer stating reported Population Pyknosed Nuclei (%) for Cl.Clc1ccc2nsnc2c1NC1=NCCN1 [TIZANIDINE HYDROCHLORIDE] .
7

Give a short answer stating reported Population Pyknosed Nuclei (%) for O=S(=O)(c1ccccc1)c1cnc2c(N3CCNCC3)cccc2c1 [INTEPIRDINE] .
8

----------
- Test system: Fibroblast
- method_description: Multiplex assay against human fibroblast
- Assay type: toxicity, cell-based
- measurement_parameters: 48 h, 10 µM, compound concentration 10 uM, replicate 1
For each entry below, report its Population Hoechst High Intensity Objects (%) value.
Numeric answer only, unit % assumed.

Please report the measured Population Hoechst High Intensity Objects (%) for CN1CCN(c2nc3cc(C(F)(F)F)ccc3n3cccc23)CC1.O=C(O)/C=C\C(=O)O.O=C(O)/C=C\C(=O)O tested on Fibroblast.
7

Please report the measured Population Hoechst High Intensity Objects (%) for COc1c(C)cc(NC(=O)c2nn(Cc3ccc(F)cc3)c3c2CN(C(=O)c2ccc[nH]2)C[C@]3(C)C(N)=O)cc1C tested on Fibroblast.
4

Please report the measured Population Hoechst High Intensity Objects (%) for CCCN1CCC[C@@H]2Cc3n[nH]cc3C[C@H]21.Cl [QUINPIROLE HYDROCHLORIDE] tested on Fibroblast.
1

Please report the measured Population Hoechst High Intensity Objects (%) for Cc1nc2ccc(Oc3ccc(F)cc3)cc2c(=O)n1C[C@H]1CCCN(C(C)C)C1.Cl tested on Fibroblast.
9

----------
For each entry below, report its Population Pyknosed Nuclei (%) value.
- System: U2OS
- method_description: Multiplex assay against U2OS
- Format: toxicity, cell-based
- measurement_parameters: human, 24 h, 1 µM, compound concentration 1 uM, replicate 2
Numeric answer only, unit % assumed.

Give a short answer stating reported Population Pyknosed Nuclei (%) for CCNC1(C(N)=O)CCN(c2ncnc3c2nc(-c2ccccc2Cl)n3-c2ccc(Cl)cc2)CC1 .
13

Give a short answer stating reported Population Pyknosed Nuclei (%) for COc1c(C)cc(NC(=O)c2nn(Cc3ccc(F)cc3)c3c2CN(C(=O)c2ccc[nH]2)C[C@]3(C)C(N)=O)cc1C .
11

Give a short answer stating reported Population Pyknosed Nuclei (%) for Oc1c(CN2CCN(c3ccccn3)CC2)cc(Cl)c2cccnc12 .
5

Give a short answer stating reported Population Pyknosed Nuclei (%) for Cc1nc2ccc(Oc3ccc(F)cc3)cc2c(=O)n1C[C@H]1CCCN(C(C)C)C1.Cl .
6

Give a short answer stating reported Population Pyknosed Nuclei (%) for O=C(O)Cc1ccccc1Nc1c(Cl)cccc1Cl .
10

Give a short answer stating reported Population Pyknosed Nuclei (%) for CSc1ccccc1N1CCN(CCCCCC(=O)NC2CCCc3ccccc32)CC1.Cl (stereo not drawn) .
15

Give a short answer stating reported Population Pyknosed Nuclei (%) for Cc1ccc(F)cc1C(=O)Nc1ccc(C(=O)N2Cc3cccn3Cc3ccccc32)c(Cl)c1 .
4

Give a short answer stating reported Population Pyknosed Nuclei (%) for COc1cc(NC(=O)CCN2CCC(OC(=O)Nc3ccccc3-c3ccccc3)CC2)c(Cl)cc1CNC[C@H](O)c1ccc(O)c2[nH]c(=O)ccc12 .
11

----------
- Test system: HEK-293T
- method_description: Multiplex assay against HEK293T
- Assay type: toxicity, cell-based
- measurement_parameters: human, 48 h, 10 µM, compound concentration 10 uM, replicate 2
reported_property: Population Apoptotic (%)
Numeric answer only, unit % assumed.

Give a short answer stating reported Population Apoptotic (%) for CC1(COc2ccc3c(c2)ncn3-c2ccc3cccc(N4CCC(N)CC4)c3n2)COC1 [CRENOLANIB] .
84

Give a short answer stating reported Population Apoptotic (%) for O=S(=O)(c1ccccc1)c1cnc2c(N3CCNCC3)cccc2c1 [INTEPIRDINE] .
18

Give a short answer stating reported Population Apoptotic (%) for c1cc(OCCCN2CCCCC2)ccc1CN1CCCCC1 [JNJ-5207852] .
52

Give a short answer stating reported Population Apoptotic (%) for COc1ccccc1N1CCN(CCCCNC(=O)c2ccc3ccccc3c2)CC1.Cl .
78

Give a short answer stating reported Population Apoptotic (%) for CCCn1c(=O)c2[nH]c(C3CCCC3)nc2n(CCC)c1=O .
45

Give a short answer stating reported Population Apoptotic (%) for Cc1nc2ccc(Oc3ccc(F)cc3)cc2c(=O)n1C[C@H]1CCCN(C(C)C)C1.Cl .
67

----------
- System: HEK-293T
- method_description: Multiplex assay against HEK293T
- Format: toxicity, cell-based
- measurement_parameters: human, 48 h, 10 µM, compound concentration 10 uM, replicate 2
reported_property: Population Apoptotic (%)
Numeric answer only, unit % assumed.

Please report the measured Population Apoptotic (%) for CSc1ccccc1N1CCN(CCCCCC(=O)NC2CCCc3ccccc32)CC1.Cl (stereo not drawn) tested on HEK-293T.
56

Please report the measured Population Apoptotic (%) for C[C@H]1[C@H]2CC[C@H]3[C@@H]4CC=C5C[C@@H](N(C)C)CC[C@]5(C)[C@H]4CC[C@]23CN1C tested on HEK-293T.
36

Please report the measured Population Apoptotic (%) for COc1cc(C(=O)N(CCCc2ccccc2)Cc2ccc(CC(=O)O)cc2)cc(OC)c1C tested on HEK-293T.
33

Please report the measured Population Apoptotic (%) for CC[C@H]1OC(=O)[C@H](C)[C@@H](O[C@H]2C[C@@](C)(OC)[C@@H](O)[C@H](C)O2)[C@H](C)[C@@H](O[C@@H]2O[C@H](C)C[C@H](N(C)C)[C@H]2O)[C@@]2(C)CC(C)=C(O2)[C@H](C)[C@@H](O)[C@]1(C)O tested on HEK-293T.
53

Please report the measured Population Apoptotic (%) for CSCC[C@H](NC=O)C(=O)N[C@@H](CC(C)C)C(=O)N[C@@H](Cc1ccccc1)C(=O)O tested on HEK-293T.
36

Please report the measured Population Apoptotic (%) for Oc1c(CN2CCN(c3ccccn3)CC2)cc(Cl)c2cccnc12 tested on HEK-293T.
94

Please report the measured Population Apoptotic (%) for Cc1ccc(/C(=C\CN2CCCC2)c2ccccn2)cc1 tested on HEK-293T.
33

Please report the measured Population Apoptotic (%) for Cc1ccc(-c2ccc(F)cc2COc2ccc(CCC(=O)O)cc2)cc1 tested on HEK-293T.
31

----------
For each entry below, report its Population Pyknosed Nuclei (%) value.
- System: HEK-293T
- method_description: Multiplex assay against HEK293T
- Assay type: toxicity, cell-based
- measurement_parameters: human, 48 h, 1 µM, compound concentration 1 uM, replicate 1
Numeric answer only, unit % assumed.

Give a short answer stating reported Population Pyknosed Nuclei (%) for CNC[C@H](O)c1ccc(O)c(O)c1 [EPINEPHRINE] .
7

Give a short answer stating reported Population Pyknosed Nuclei (%) for O=C(O)c1cc2ccccc2c(Cc2c(O)c(C(=O)O)cc3ccccc23)c1O [PAMOIC ACID] .
7

Give a short answer stating reported Population Pyknosed Nuclei (%) for Cc1ccc(F)cc1C(=O)Nc1ccc(C(=O)N2Cc3cccn3Cc3ccccc32)c(Cl)c1 [LIXIVAPTAN] .
6

Give a short answer stating reported Population Pyknosed Nuclei (%) for CN1CCN(c2nc3cc(C(F)(F)F)ccc3n3cccc23)CC1.O=C(O)/C=C\C(=O)O.O=C(O)/C=C\C(=O)O .
7

Give a short answer stating reported Population Pyknosed Nuclei (%) for N[C@@]1(C(=O)O)CO[C@H]2[C@H](C(=O)O)[C@H]21 [LY-379268] .
6

Give a short answer stating reported Population Pyknosed Nuclei (%) for O=C(NCC(=O)N1CC[C@H](N[C@H]2CC[C@@](O)(c3ccc(-c4ncccn4)cn3)CC2)C1)c1cccc(C(F)(F)F)c1 [PF-4136309] .
4

Give a short answer stating reported Population Pyknosed Nuclei (%) for Cl.Clc1ccc2nsnc2c1NC1=NCCN1 [TIZANIDINE HYDROCHLORIDE] .
6

Give a short answer stating reported Population Pyknosed Nuclei (%) for O=C(NCCO)c1cccc(-c2cc(Nc3ccc(OC(F)(F)F)cc3)ncn2)c1 .
7

Give a short answer stating reported Population Pyknosed Nuclei (%) for O=S(=O)(c1ccccc1)c1cnc2c(N3CCNCC3)cccc2c1 [INTEPIRDINE] .
7

Give a short answer stating reported Population Pyknosed Nuclei (%) for CCOc1c2c(c(OCC)c3ncccc13)CN(c1ccc(CS(=O)(=O)NC(=O)Cc3ccccc3OC)cc1C)C2=O .
6

Give a short answer stating reported Population Pyknosed Nuclei (%) for CC(C)(C)c1ccc(S(=O)(=O)Nc2ccc(Cl)cc2C(=O)c2cc[n+]([O-])cc2)cc1 [VERCIRNON] .
7

Give a short answer stating reported Population Pyknosed Nuclei (%) for CCCN1CCC[C@@H]2Cc3n[nH]cc3C[C@H]21.Cl [QUINPIROLE HYDROCHLORIDE] .
6

Give a short answer stating reported Population Pyknosed Nuclei (%) for CN(C)c1ccnc2sc3c(=O)n(N4CCCCCC4)cnc3c12 .
7

Give a short answer stating reported Population Pyknosed Nuclei (%) for COc1ccc2c(c1)C(C(=O)N(Cc1ccc(N(C)C)cc1)c1ccc(C(C)C)cc1)CCC2.Cl (stereo not drawn) .
6

Give a short answer stating reported Population Pyknosed Nuclei (%) for Cc1nc2ccc(Oc3ccc(F)cc3)cc2c(=O)n1C[C@H]1CCCN(C(C)C)C1.Cl .
5

Give a short answer stating reported Population Pyknosed Nuclei (%) for C[C@H]1[C@H]2CC[C@H]3[C@@H]4CC=C5C[C@@H](N(C)C)CC[C@]5(C)[C@H]4CC[C@]23CN1C [CONESSINE] .
7

Give a short answer stating reported Population Pyknosed Nuclei (%) for CC(=O)NCCc1c(Cc2ccccc2)[nH]c2ccccc12 [LUZINDOLE] .
5

Give a short answer stating reported Population Pyknosed Nuclei (%) for CCNC1(C(N)=O)CCN(c2ncnc3c2nc(-c2ccccc2Cl)n3-c2ccc(Cl)cc2)CC1 [OTENABANT] .
9
